Values compiled from patent US20250186627A1.

System: NRG-mice bearing LNCaP tumors
method.notes: Biodistribution (and PET/SPECT imaging) in NRG-mice bearing LNCaP tumors
Format: in vivo
stated.conditions: 24 h p.i., Avg
*1 amine or outer side, *2 acyl side, *3 side chain or, on linkers, in order; H or OH if unused. Where a SMILES comes first, the peptide text is derived from it. [ ]: non-standard residue; d: D form. The star is where a group is joined. ξ: configuration not given here. ξLys(Nα-CO-ξAad) = O=C(O)CCCC(NC(=O)NC(CCCCN*)C(=O)O)C(=O)O; Butanoyl(4-(4-NO2Ph)) = O=C(CCCc1ccc([N+](=O)[O-])cc1)*; DOTA = O=C(O)CN1CCN(CC(=O)O)CCN(CC(=O)*)CCN(CC(=O)O)CC1; ξAla(9-anthryl) = NC(Cc1c2ccccc2cc2ccccc12)C(=O)O; X1 = O=C(C1CCC(CN[*:1])CC1)[*:2]; ξK = NCCCCC(N)C(=O)O
experimental.readout: Biodistribution: Urine (% ID/g)
Reply with just the number (in % ID/g).

COc1ccc(CCCC(=O)NCC(=O)NC(CCCCNC(=O)CN2CCN(CC(=O)[O-])CCN(CC(=O)[O-])CCN(CC(=O)[O-])CC2)C(=O)NCC2CCC(C(=O)NC(Cc3c4ccccc4cc4ccccc34)C(=O)NCCCCC(NC(=O)NC(CCCC(=O)O)C(=O)O)C(=O)O)CC2)cc1.[177Lu+3] (centres unmarked) [^177Lu-HTK03170, reference compound] ... 19.02

Read the next record carefully.
Summary: O=C([O-])CN1CCN(CC(=O)[O-])CCN(CC(=O)NCCCCC(NC(=O)CNC(=O)CCCc2ccc([N+](=O)[O-])cc2)C(=O)NCC(=O)NCC2CCC(C(=O)NC(Cc3c4ccccc4cc4ccccc34)C(=O)NCCCCC(NC(=O)NC(CCCC(=O)O)C(=O)O)C(=O)O)CC2)CCN(CC(=O)[O-])CC1.[177Lu+3] (centres unmarked) [^177Lu-CCZ02017] ({Butanoyl(4-(4-NO2Ph))}-G[ξK](DOTA)G[X1][ξAla(9-anthryl)]-{ξLys(Nα-CO-ξAad)}) , NRG-mice bearing LNCaP tumors, Biodistribution: Urine = 9.85

---

Tested on: NRG-mice bearing LNCaP tumors
method.notes: Biodistribution (and PET/SPECT imaging) in NRG-mice bearing LNCaP tumors
Assay type: in vivo
stated.conditions: 24 h p.i., Avg
*1 amine or outer side, *2 acyl side, *3 side chain or, on linkers, in order; H or OH if unused. Where a SMILES comes first, the peptide text is derived from it. [ ]: non-standard residue; d: D form. The star is where a group is joined. ξ: configuration not given here. ξLys(Nα-CO-ξAad) = O=C(O)CCCC(NC(=O)NC(CCCCN*)C(=O)O)C(=O)O; Butanoyl(4-(4-NO2Ph)) = O=C(CCCc1ccc([N+](=O)[O-])cc1)*; DOTA = O=C(O)CN1CCN(CC(=O)O)CCN(CC(=O)*)CCN(CC(=O)O)CC1; Butanoyl(4-(4-MeO-phenyl)) = COc1ccc(CCCC(=O)*)cc1; ξAla(9-anthryl) = NC(Cc1c2ccccc2cc2ccccc12)C(=O)O; X2 = O=C(NC(CCCCN*)C(=O)O)NC(CC(F)C(=O)O)C(=O)O; X1 = O=C(C1CCC(CN[*:1])CC1)[*:2]; ξK = NCCCCC(N)C(=O)O
experimental.readout: Biodistribution: Heart (% ID/g)
Write down the numeric answer in % ID/g and omit the unit.

Here are 3 compounds together with their reported answers.
O=C([O-])CN1CCN(CC(=O)[O-])CCN(CC(=O)NCCCCC(NC(=O)CNC(=O)CCCc2ccc([N+](=O)[O-])cc2)C(=O)NCC(=O)NCC2CCC(C(=O)NC(Cc3c4ccccc4cc4ccccc34)C(=O)NCCCCC(NC(=O)NC(CCCC(=O)O)C(=O)O)C(=O)O)CC2)CCN(CC(=O)[O-])CC1.[177Lu+3] (stereo not shown) [^177Lu-CCZ02017] ({Butanoyl(4-(4-NO2Ph))}-G[ξK](DOTA)G[X1][ξAla(9-anthryl)]-{ξLys(Nα-CO-ξAad)}) ... 0.24
COc1ccc(CCCC(=O)NCC(=O)NC(CCCCNC(=O)CN2CCN(CC(=O)[O-])CCN(CC(=O)[O-])CCN(CC(=O)[O-])CC2)CC(=O)NCC2CCC(C(=O)NC(Cc3c4ccccc4cc4ccccc34)C(=O)NCCCCC(NC(=O)NC(CC(F)C(=O)O)C(=O)O)C(=O)O)CC2)cc1.[177Lu+3] (stereo not shown) [^177Lu-CCZ02019] ... 0.37
COc1ccc(CCCC(=O)NCC(=O)NC(CCCCNC(=O)CN2CCN(CC(=O)[O-])CCN(CC(=O)[O-])CCN(CC(=O)[O-])CC2)C(=O)NCC(=O)NCC2CCC(C(=O)NC(Cc3c4ccccc4cc4ccccc34)C(=O)NCCCCC(NC(=O)NC(CC(F)C(=O)O)C(=O)O)C(=O)O)CC2)cc1.[177Lu+3] (stereo not shown) [^177Lu-CCZ02008] ({Butanoyl(4-(4-MeO-phenyl))}-G[ξK](DOTA)G[X1][ξAla(9-anthryl)]-X2) ... 1.27

Item O=C([O-])CN1CCN(CC(=O)[O-])CCN(CC(=O)NCCCCC(NC(=O)CNC(=O)CCCc2ccc([N+](=O)[O-])cc2)C(=O)NCC(=O)NCC2CCC(C(=O)NC(Cc3c4ccccc4cc4ccccc34)C(=O)NCCCCC(NC(=O)NC(CCCC(=O)O)C(=O)O)C(=O)O)CC2)CCN(CC(=O)[O-])CC1.[225Ac+3] (stereo not shown) [^225Ac-CCZ02017] ({Butanoyl(4-(4-NO2Ph))}-G[ξK](DOTA)G[X1][ξAla(9-anthryl)]-{ξLys(Nα-CO-ξAad)}) was tested on NRG-mice bearing LNCaP tumors; the reported Biodistribution: Heart is 0.25

---

Tested on: NRG-mice bearing LNCaP tumors
method.notes: Biodistribution (and PET/SPECT imaging) in NRG-mice bearing LNCaP tumors
Type: in vivo
stated.conditions: 3 h p.i., Avg
*1 amine or outer side, *2 acyl side, *3 side chain or, on linkers, in order; H or OH if unused. Where a SMILES comes first, the peptide text is derived from it. [ ]: non-standard residue; d: D form. The star is where a group is joined. ξ: configuration not given here. ξLys(Nα-CO-ξAad) = O=C(O)CCCC(NC(=O)NC(CCCCN*)C(=O)O)C(=O)O; Butanoyl(4-(4-NO2Ph)) = O=C(CCCc1ccc([N+](=O)[O-])cc1)*; DOTA = O=C(O)CN1CCN(CC(=O)O)CCN(CC(=O)*)CCN(CC(=O)O)CC1; Butanoyl(4-(4-MeO-phenyl)) = COc1ccc(CCCC(=O)*)cc1; ξAla(9-anthryl) = NC(Cc1c2ccccc2cc2ccccc12)C(=O)O; X2 = O=C(NC(CCCCN*)C(=O)O)NC(CC(F)C(=O)O)C(=O)O; X1 = O=C(C1CCC(CN[*:1])CC1)[*:2]; ξK = NCCCCC(N)C(=O)O
experimental.readout: Biodistribution: Liver (% ID/g)
Reply with just the number (in % ID/g).

Known results for molecules:
O=C([O-])CN1CCN(CC(=O)[O-])CCN(CC(=O)NCCCCC(NC(=O)CNC(=O)CCCc2ccc([N+](=O)[O-])cc2)C(=O)NCC(=O)NCC2CCC(C(=O)NC(Cc3c4ccccc4cc4ccccc34)C(=O)NCCCCC(NC(=O)NC(CC(F)C(=O)O)C(=O)O)C(=O)O)CC2)CCN(CC(=O)[O-])CC1.[68Ga+3] (stereo not shown) [^68Ga-CCZ02025] ({Butanoyl(4-(4-NO2Ph))}-G[ξK](DOTA)G[X1][ξAla(9-anthryl)]-X2) ... 3.21
COc1ccc(CCCC(=O)NCC(=O)NC(CCCCNC(=O)CN2CCN(CC(=O)[O-])CCN(CC(=O)[O-])CCN(CC(=O)[O-])CC2)CC(=O)NCC2CCC(C(=O)NC(Cc3c4ccccc4cc4ccccc34)C(=O)NCCCCC(NC(=O)NC(CC(F)C(=O)O)C(=O)O)C(=O)O)CC2)cc1.[177Lu+3] (stereo not shown) [^177Lu-CCZ02019] ... 2.18
COc1ccc(CCCC(=O)NCC(=O)NC(CCCCNC(=O)CN2CCN(CC(=O)[O-])CCN(CC(=O)[O-])CCN(CC(=O)[O-])CC2)CC(=O)NCC2CCC(C(=O)NC(Cc3c4ccccc4cc4ccccc34)C(=O)NCCCCC(NC(=O)NC(CCCC(=O)O)C(=O)O)C(=O)O)CC2)cc1.[68Ga+3] (stereo not shown) [^68Ga-CCZ02015] ... 2.13

Okay, now this molecule:
Lab note: COc1ccc(CCCC(=O)NCC(=O)NC(CCCCNC(=O)CN2CCN(CC(=O)[O-])CCN(CC(=O)[O-])CCN(CC(=O)[O-])CC2)C(=O)NCC(=O)NCC2CCC(C(=O)NC(Cc3c4ccccc4cc4ccccc34)C(=O)NCCCCC(NC(=O)NC(CCCC(=O)O)C(=O)O)C(=O)O)CC2)cc1.[68Ga+3] (stereo not shown) [^68Ga-CCZ02009] ({Butanoyl(4-(4-MeO-phenyl))}-G[ξK](DOTA)G[X1][ξAla(9-anthryl)]-{ξLys(Nα-CO-ξAad)}) gave Biodistribution: Liver of 3.35
